Readings of d(N2,O3) for the listed compounds
- targetOrTestSystem: MASP-2 CCP2-SP (Homo sapiens (Human), UniProt O00187)
- Sequence (O00187 445-686): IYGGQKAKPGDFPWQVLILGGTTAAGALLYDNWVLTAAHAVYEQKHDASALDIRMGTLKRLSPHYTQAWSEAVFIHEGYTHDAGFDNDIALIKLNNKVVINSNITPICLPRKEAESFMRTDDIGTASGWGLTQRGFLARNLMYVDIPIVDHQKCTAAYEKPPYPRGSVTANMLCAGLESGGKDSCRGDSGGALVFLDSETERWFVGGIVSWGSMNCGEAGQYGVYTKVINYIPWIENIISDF
- Sequence (O00187 364-432 partner): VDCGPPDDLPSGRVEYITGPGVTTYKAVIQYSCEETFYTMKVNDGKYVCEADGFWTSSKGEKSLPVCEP
- assayOverview: MASP-2 co-crystallization, X-ray crystallography and structure analysis (H-bonds, van der Waals contacts)
- Design: unit not given beside the values
- conditions: Table A5-2 pharmacophore distance, S3/S4 region
Write no unit; give the number alone.

compound	d(N2,O3)
CC(=O)Nc1ccc(CCNC(CCc2ccccc2)C(=O)NC(C)C(=O)NCc2ccc(C(=N)N)cc2)cc1.Cl.Cl (stereo not drawn) [1345_1]	8.75

Can you look up the measured d(N2,O3) of CC(NC(=O)C(CCc1ccccc1)NCCCc1ccc(O)cc1)C(=O)NCc1ccc(C(=N)N)cc1.Cl.Cl (stereo not drawn) for me?
7.97

Next entry: CC(=O)Nc1ccc(CCNC(CCc2ccccc2)C(=O)NC(C)C(=O)NCc2ccc(C(=N)N)cc2)cc1.Cl.Cl (stereo not drawn) [1345_2]
8.73

Next entry: C[C@H](NC(=O)[C@@H](CCc1ccccc1)NCc1ccc(C(=O)N2CCOCC2)cc1)C(=O)NCc1ccc(C(=N)N)cc1.Cl.Cl
9.72

Next entry: C[C@H](NC(=O)[C@@H](CCc1ccccc1)NCCCc1ccc(O)cc1)C(=O)NCc1ccc(C(=N)N)cc1.Cl.Cl
7.97

Next entry: CC(NC(=O)C(CCc1ccccc1)NCc1ccc(C(=O)N2CCOCC2)cc1)C(=O)NCc1ccc(C(=N)N)cc1.Cl.Cl (stereo not drawn)
7.78
